Test system: SW-620
Test: NCI tumour cell line growth inhibition, 48 h
Active and inactive are the calls of the source. Cut-off read from the data, not from the text of the source: active = GI50 up to about 1.1 µM and inactive = higher.
Choose the fitting class; nothing outside y (active), n (inactive) is accepted.

Example entries and their recorded answers appear below.
Cc1ccc(S(=O)(=O)N2CCCCC2CCO)cc1 (stereo unspecified)    n
COc1cc(OC)c2c(O)c(S(=O)(=O)c3ccc(C)cc3)c(=O)oc2c1    n
O=C1CC2Sc3ccccc3N=C2N1c1ccc(Cl)cc1Cl (stereo unspecified)    n
Cc1ccc2[nH]c3c(C)c4ccncc4c(C)c3c2c1    y
Cc1nc(N)nc(CCC(=O)Nc2cccc(C(F)(F)F)c2)c1-c1ccc(Cl)cc1    n

// switching to the query compound
Ask: Give the logged outcome of this assay for the following compound: "COc1ccc(/C=C/C(=O)C(C)C)cc1"
Result: n

Data provenance: ChEMBL document CHEMBL1201862
